The measurements presented in this section are drawn from patent US10189839B2.

The reader will find reported log10 of IC50 values listed item by item below.
# ASSAYED SYSTEM: full length human TPH1 (Homo sapiens, UniProt P17752)
# Construct: To generate the enzyme, full length human TPH1 is cloned into the plasmid pET20b(+); made in house; host or cells: E. coli
# Sequence (P17752 whole entry): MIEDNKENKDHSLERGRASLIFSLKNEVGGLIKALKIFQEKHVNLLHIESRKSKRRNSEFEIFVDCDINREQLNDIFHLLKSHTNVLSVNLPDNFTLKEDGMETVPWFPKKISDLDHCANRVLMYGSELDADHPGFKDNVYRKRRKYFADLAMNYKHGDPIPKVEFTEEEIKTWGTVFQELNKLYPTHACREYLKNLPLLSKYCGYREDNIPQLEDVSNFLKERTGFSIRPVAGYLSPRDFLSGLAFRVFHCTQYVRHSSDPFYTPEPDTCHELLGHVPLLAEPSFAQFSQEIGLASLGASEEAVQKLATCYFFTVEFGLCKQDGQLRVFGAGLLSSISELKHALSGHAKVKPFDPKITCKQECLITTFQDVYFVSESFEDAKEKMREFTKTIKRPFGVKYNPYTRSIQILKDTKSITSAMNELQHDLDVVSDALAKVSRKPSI
# TEST NAME: Biochemical in vitro assay using fluorescence readout (TPH1 enzyme activity)
# DETAILS: Table 1, mean where determined several times
ASSAY METRIC: log10 of IC50 (log10 of the value in nM)

| MOLECULE | log10 of IC50 |
| --- | --- |
| CS(=O)(=O)Nc1ccc(OCC(=O)N2CCc3nc4n(c3C2c2ccc(C#N)cc2F)CCCC4)c(Cl)n1 (stereo not shown) | 1.68 |
| O=C(COc1ccc(N2CCCS2(=O)=O)nc1Cl)N1CCc2nc3n(c2C1c1ccc(Cl)cc1F)CCS3 (stereo not shown) | 0.85 |
| CCc1nc(NS(C)(=O)=O)ccc1OCC(=O)N1CCc2nc3n(c2C1c1ccc(Cl)cc1F)CCCC3 (stereo not shown) | 0.90 |
| Cc1cnc(C2c3c(nc4n3CCCC4)CCN2C(=O)COc2ccc(N3CCCS3(=O)=O)nc2Cl)c(F)c1 (stereo not shown) | 1.20 |
| CCc1nc(C)ccc1OCC(=O)N1CCc2nc3n(c2C1c1ccc(C2CC2)cc1F)CCN(C(=O)OC(C)(C)C)C3 (stereo not shown) | 1.87 |
| CCc1nc(C(=O)NC2CC2)ccc1OCC(=O)N1CCc2nc3n(c2[C@@H]1c1sc(C)nc1C)CCC3 | 0.95 |
| CCc1nc(NS(C)(=O)=O)ccc1OCC(=O)N1CCc2nc3n(c2[C@@H]1c1ccc(Cl)cc1F)CCS3 | 0.78 |
